Recorded IC50 by entry
# Target entity: Human Serotonin Receptor, Subtype 7 (h5HT7) (Homo sapiens)
# Sequence (P34969 whole entry): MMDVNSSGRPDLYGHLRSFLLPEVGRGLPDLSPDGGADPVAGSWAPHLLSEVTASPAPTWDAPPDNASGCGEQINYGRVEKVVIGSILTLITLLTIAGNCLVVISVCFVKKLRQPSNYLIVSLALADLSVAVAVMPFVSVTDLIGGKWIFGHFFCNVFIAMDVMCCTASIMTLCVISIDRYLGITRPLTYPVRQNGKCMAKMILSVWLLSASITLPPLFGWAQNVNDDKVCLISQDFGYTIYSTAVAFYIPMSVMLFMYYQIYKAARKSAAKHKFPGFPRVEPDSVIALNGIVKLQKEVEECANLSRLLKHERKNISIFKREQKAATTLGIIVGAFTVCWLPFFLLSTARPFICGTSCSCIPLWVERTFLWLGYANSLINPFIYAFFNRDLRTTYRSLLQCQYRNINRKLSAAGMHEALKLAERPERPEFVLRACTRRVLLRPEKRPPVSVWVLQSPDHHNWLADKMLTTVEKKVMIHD
# Test summary: Radioligand binding, cloned human serotonin receptor subtype 7 (h5HT7) expressed in CHO cells, [125I]LSD
# Stated conditions: h5HT7 in CHO cells on Flashplate; [125I]LSD 0.82 nM; room temperature 240 minutes; triplicate; read-out: 5-HT7 IC-50
Where a name gives a salt, the structure may show the parent alone.

Molecule	IC50 (nM)
COc1cc2c(cc1OC)CN(CCCNS(=O)(=O)c1cc(Cl)ccc1Cl)CC2	89.5
COc1cc2c(cc1OC)CN(CCCNS(=O)(=O)c1cc(Cl)c(F)cc1F)CC2	64.8
O=S(=O)(NCCCN1CCc2ccccc2C1)c1ccccc1	136
O=S(=O)(NCCCN1CCc2ccccc2C1)c1cccc2ccccc12 [Compound 33, hydrochloride]	384
COc1cc(C)c(S(=O)(=O)NCCCN2CCc3ccccc3C2)c(C)c1C	112
